# System: ubiquinone binding site of complex I (IQ)
# procedure-summary: High-throughput screen: ROS production from ubiquinone binding site of complex I (IQ), isolated skeletal muscle mitochondria
# Type: biochemical, rat
# reported-conditions: Table 7; percent change in ROS from DMSO controls
IQ reference
Would you mind answering with just the numeric figure?

Known IQ results, listed for orientation:
>  <molecule>
O=C(O)CCC(=O)Nc1cccc(-c2nc3ccccc3[nH]2)c1

>  <value>
−43.9

$$$$
>  <molecule>
COc1cc(CN(CCN(C)C)Cc2ccccc2)cc(OC)c1

>  <value>
−1.4

$$$$
>  <molecule>
O=C(Nc1ccccc1[N+](=O)[O-])c1cccc(S(=O)(=O)Nc2ccccc2)c1

>  <value>
−4.6

$$$$

q: For ubiquinone binding site of complex I (IQ), give IQ of the listed molecule: CC(C)Cc1ccc(C(C)C(=O)Nc2ccccc2O)cc1 (stereo not shown)
a: −40.0

q: For ubiquinone binding site of complex I (IQ), give IQ of the listed molecule: O=C(O)CCC(=O)Nc1ccc(-c2nc3ccccc3s2)cc1
a: −11.0

q: For ubiquinone binding site of complex I (IQ), give IQ of the listed molecule: Cc1ccc(CCSc2ccc(F)cc2)cn1
a: 1.3

----------
# Tested on: ubiquinone binding site of complex I (IQ)
# procedure-summary: High-throughput screen: ROS production from ubiquinone binding site of complex I (IQ), isolated skeletal muscle mitochondria
# Format: biochemical, rat
# reported-conditions: Table 9; percent change in ROS from DMSO controls
IQ reference
Would you mind answering with just the numeric figure?

>  <structure-notation>
Oc1nnc(Cc2ccncc2)c2ccccc12

>  <value>
0.4

$$$$
>  <structure-notation>
Cc1ccc(CCSc2ccc(F)cc2)cn1

>  <value>
1.3

$$$$
>  <structure-notation>
COC(=O)c1ccc(CN(CCc2ccccc2)Cc2ccccc2)cc1

>  <value>
−0.5

$$$$
>  <structure-notation>
COc1ccc(Cl)cc1N(Cc1ccccc1)Cc1ccccc1

>  <value>
4.0

$$$$

Please find the next compound below.
q: Please supply the value of reported IQ for the item COc1ccccc1/C=C/c1nc(O)nc(O)c1[N+](=O)[O-]
a: −5.4

----------
GPDH reference
# assayed-target: glycerol-3-phosphate dehydrogenase (GPDH) (Rattus norvegicus)
# Construct: The activity of GPDH in intact mitochondria (0.3 mg/mL) was measured; from tissue; host or cells: rat skeletal muscle mitochondria (Wistar, Harlan Laboratories)
# Sequence (P35571 43-727): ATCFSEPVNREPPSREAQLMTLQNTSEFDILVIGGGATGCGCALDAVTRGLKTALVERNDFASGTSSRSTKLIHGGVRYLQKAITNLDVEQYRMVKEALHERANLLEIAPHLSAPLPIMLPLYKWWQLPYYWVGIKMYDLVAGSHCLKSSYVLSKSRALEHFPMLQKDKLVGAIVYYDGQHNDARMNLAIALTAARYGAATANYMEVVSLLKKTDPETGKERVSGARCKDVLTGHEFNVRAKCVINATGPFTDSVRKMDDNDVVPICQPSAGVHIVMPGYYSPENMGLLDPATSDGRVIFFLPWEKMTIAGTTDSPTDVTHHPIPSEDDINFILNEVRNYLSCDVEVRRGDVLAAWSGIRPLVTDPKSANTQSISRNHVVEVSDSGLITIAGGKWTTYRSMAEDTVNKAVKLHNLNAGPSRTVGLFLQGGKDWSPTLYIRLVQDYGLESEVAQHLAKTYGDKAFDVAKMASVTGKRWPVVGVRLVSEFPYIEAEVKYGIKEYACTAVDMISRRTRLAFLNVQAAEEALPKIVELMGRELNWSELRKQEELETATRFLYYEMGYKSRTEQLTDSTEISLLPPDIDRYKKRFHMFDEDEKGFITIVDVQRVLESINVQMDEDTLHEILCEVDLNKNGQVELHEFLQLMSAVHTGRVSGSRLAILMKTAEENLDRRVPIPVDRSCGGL
# procedure-summary: High-throughput screen: ROS production from glycerol-3-phosphate dehydrogenase (GPDH)
# Assay type: biochemical
# reported-conditions: Table 9; percent change in ROS from DMSO controls
Would you mind answering with just the numeric figure?

Known GPDH results, listed for orientation:
>  <compound>
O=C(O)CCC(=O)Nc1ccc(-c2nc3ccccc3o2)cc1

>  <GPDH>
−12.2

$$$$
>  <compound>
COc1cccc(CCNC2C3CC4CC(C3)CC2C4)c1 (stereo not drawn)

>  <GPDH>
−3.3

$$$$
>  <compound>
O=C(Nc1ccc(Br)cc1)[C@@H]1C2C=CC(C2)[C@@H]1C(=O)O (stereo partly drawn)

>  <GPDH>
−2.3

$$$$
>  <compound>
CCN(CC)CCN(CC)Cc1ccc(Cl)cc1Cl

>  <GPDH>
−2.5

$$$$
>  <compound>
O=C(O)C1CCCCC1C(=O)NC1CCCCCCC1 (stereo not drawn)

>  <GPDH>
0.7

$$$$

q: Please supply the value of reported GPDH for the item CCN1CCN(C/C=C/c2ccc(N(C)C)cc2)CC1
a: −13.4

q: Please supply the value of reported GPDH for the item O=[N+]([O-])c1ccc(Oc2ccc(S(=O)(=O)Nc3ccc(F)cc3)cc2)cc1
a: −0.2

q: Please supply the value of reported GPDH for the item COc1cccc(/C=C/C(=O)c2c(O)cc(C)oc2=O)c1O
a: −3.6

q: Please supply the value of reported GPDH for the item Cc1cc(C)c(S(=O)(=O)N2CCCC2=O)c(C)c1
a: −4.2
